biological target: UniProt:Q99808; assay: ENT1 binding assay (competition with Sahenta-DY647 on JAR cells); parameters: JAR cells expressing ENT1 were bought from ATCC® (HTB-144TM); host or cells: JAR cells (human choriocarcinoma line; whole cells); conditions: competition with Sahenta-DY647 100 nM, 4° C.
pIC50: −log10 of the molar value.
experimental readout: pIC50

Illustrative cases are given below, each with its answer.
>  <compound>
COc1cc2cc(c1OC)OCCCC(OC(=O)c1ccc(O)nc1)CCN1CCCN(CCCOC2=O)CC1 (stereo not drawn) [Compound 55]

>  <subject of test>
UniProt:Q99808

>  <pIC50>
7.70 to 9.00

$$$$
>  <compound>
COc1cc2cc(c1OC)OCCCC(OC(=O)c1ccc(F)c(F)c1)CCN1CCCN(CCCOC2=O)CC1 (stereo not drawn) [Compound 85]

>  <subject of test>
UniProt:Q99808

>  <pIC50>
7.70 to 9.00

$$$$
>  <compound>
CNC(=O)CCC(=O)OC1CCCOc2cc(cc(OC)c2OC)C(=O)OCCCN2CCCN(CC1)CC2 (stereo not drawn) [Compound 101]

>  <subject of test>
UniProt:Q99808

>  <pIC50>
7.70 to 9.00

$$$$
>  <compound>
COc1cc2cc(c1OC)OCCCC(OC(=O)c1cccc(OC(F)F)c1)CCN1CCCN(CCCOC2=O)CC1 (stereo not drawn) [Compound 75]

>  <subject of test>
UniProt:Q99808

>  <pIC50>
6.30 to 7.70

$$$$
>  <compound>
COc1cc(C(=O)OC2CCCOc3cc(cc(C(N)=O)c3Cl)C(=O)OCCCN3CCCN(CC2)CC3)cc(OC)c1OC (stereo not drawn) [Compound 120]

>  <subject of test>
UniProt:Q99808

>  <pIC50>
7.70 to 9.00

$$$$

Enquiry: Which measured pIC50 value corresponds to COc1ccc(C(=O)OC2CCCOc3cc(cc(OC)c3OC)C(=O)OCCCN3CCCN(CC2)CC3)c(F)c1 (stereo not drawn) [Compound 50] ?
Return: 7.70 to 9.00

Enquiry: Which measured pIC50 value corresponds to COc1cc(C(=O)O[C@@H]2CCCOc3cc(cc(OC)c3OC)C(=O)OCCCN3CCN(CC2)CC(F)(F)C3)cc(OC)c1OC [Compound 6] ?
Return: 7.70 to 9.00

Enquiry: Which measured pIC50 value corresponds to COc1cc2cc(c1OC)OCCC[C@@H](O)CCN1CCCN(CCCOC2=O)CC1 [Compound 39] ?
Return: < 6.30

Enquiry: Which measured pIC50 value corresponds to COc1cc(C(=O)OC2CCCOc3cc(cc(Cl)c3Br)C(=O)NCCCN3CCCN(CC2)CC3)cc(OC)c1OC (stereo not drawn) [Compound 122] ?
Return: 7.70 to 9.00

----------
Biological target: human ENT1 (Homo sapiens, UniProt Q99808)
Sequence (Q99808 1-456): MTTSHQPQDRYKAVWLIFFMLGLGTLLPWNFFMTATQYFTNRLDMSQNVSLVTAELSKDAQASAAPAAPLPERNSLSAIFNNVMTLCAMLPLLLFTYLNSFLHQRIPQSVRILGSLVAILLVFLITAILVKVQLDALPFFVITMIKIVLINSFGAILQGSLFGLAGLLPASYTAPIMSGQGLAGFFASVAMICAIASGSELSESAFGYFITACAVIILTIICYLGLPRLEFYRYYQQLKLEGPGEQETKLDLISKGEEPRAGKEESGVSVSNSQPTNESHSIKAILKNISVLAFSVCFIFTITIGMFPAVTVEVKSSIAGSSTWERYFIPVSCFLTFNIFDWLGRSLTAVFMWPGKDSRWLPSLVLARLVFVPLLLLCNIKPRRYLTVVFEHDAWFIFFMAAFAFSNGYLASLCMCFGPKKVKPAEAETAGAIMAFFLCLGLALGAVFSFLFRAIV
Test: ENT1 binding assay (competition with Sahenta-DY647 on JAR cells)
Parameters: JAR cells expressing ENT1 were bought from ATCC® (HTB-144TM); host or cells: JAR cells (human choriocarcinoma line; whole cells)
Settings: competition with Sahenta-DY647 100 nM, 4° C.
pIC50: −log10 of the molar value.
experimental readout: pIC50

Illustrative cases are given below, each with its answer.
>  <compound>
COc1cc2cc(c1OC)OCCCC(OC(=O)c1ccc(C#N)cc1)CCN1CCCN(CCCOC2=O)CC1 (stereo not shown)

>  <pIC50>
7.70 to 9.00

$$$$
>  <compound>
COc1cc2cc(c1OC)OCCCC(OC(=O)C1CCC(F)(F)CC1)CCN1CCCN(CCCOC2=O)CC1 (stereo not shown)

>  <pIC50>
7.70 to 9.00

$$$$

Next item in the queue.
Enquiry: Which measured pIC50 value corresponds to COc1cc(C(=O)O[C@@H]2CCCOc3cccc(c3)C(=O)OCCCN3CCCN(CC2)CC3)cc(OC)c1OC (stereo in doubt) ?
Return: 7.70 to 9.00

----------
Molecular target: human ENT1 (Homo sapiens, UniProt Q99808)
Sequence (Q99808 1-456): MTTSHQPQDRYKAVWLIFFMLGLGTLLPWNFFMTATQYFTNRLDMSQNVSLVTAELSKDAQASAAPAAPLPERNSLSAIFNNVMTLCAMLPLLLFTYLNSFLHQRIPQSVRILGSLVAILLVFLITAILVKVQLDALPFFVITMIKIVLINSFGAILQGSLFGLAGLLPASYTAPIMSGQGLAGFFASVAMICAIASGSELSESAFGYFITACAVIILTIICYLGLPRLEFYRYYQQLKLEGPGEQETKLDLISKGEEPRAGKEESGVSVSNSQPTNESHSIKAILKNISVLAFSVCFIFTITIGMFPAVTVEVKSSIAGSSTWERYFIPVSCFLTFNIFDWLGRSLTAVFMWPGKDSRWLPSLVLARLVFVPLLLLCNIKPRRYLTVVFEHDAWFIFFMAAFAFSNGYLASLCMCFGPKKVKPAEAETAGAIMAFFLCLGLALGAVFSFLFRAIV
Assay: ENT1 binding assay (competition with Sahenta-DY647 on JAR cells)
Parameters: JAR cells expressing ENT1 were bought from ATCC® (HTB-144TM); host or cells: JAR cells (human choriocarcinoma line; whole cells)
Details: competition with Sahenta-DY647 100 nM, 4° C.
pIC50: −log10 of the molar value.
pIC50 reference

Illustrative cases are given below, each with its answer.
>  <molecule>
COc1cc(C(=O)OC2CCCOc3cc(cc(OC)c3OC)C(=O)NCCCN3CCCN(CC2)CC3)cc(OC)c1OC (centres unmarked) [Compound 8]

>  <pIC50>
7.70 to 9.00

$$$$
>  <molecule>
COc1cc2cc(c1OC)OCCCC(OC(=O)c1cccc(Oc3ccccc3)c1)CCN1CCCN(CCCOC2=O)CC1 (centres unmarked) [Compound 46]

>  <pIC50>
6.30 to 7.70

$$$$
>  <molecule>
COc1cc2cc(c1OC)OCCCC(OC(=O)c1cnccn1)CCN1CCCN(CCCOC2=O)CC1 (centres unmarked) [Compound 54]

>  <pIC50>
7.70 to 9.00

$$$$
>  <molecule>
COc1cc2cc(c1OC)OCCCC(OC(=O)c1ccc(OC(F)(F)F)cc1)CCN1CCCN(CCCOC2=O)CC1 (centres unmarked) [Compound 30]

>  <pIC50>
6.30 to 7.70

$$$$
>  <molecule>
COc1cc2cc(c1OC)OCCCC(OC(=O)C1CC(C)(C)C1)CCN1CCCN(CCCOC2=O)CC1 (centres unmarked) [Compound 65]

>  <pIC50>
6.30 to 7.70

$$$$

Enquiry: Which measured pIC50 value corresponds to COc1cc2cc(c1OC)OCCCC(OC(=O)c1cc(Cl)cc(Cl)c1)CCN1CCCN(CCCOC2=O)CC1 (centres unmarked) [Compound 76] ?
Return: 6.30 to 7.70

Enquiry: Which measured pIC50 value corresponds to COc1cc2cc(c1OC)OCCCC(OC(C)=O)CCN1CCCN(CCCOC2=O)CC1 (centres unmarked) [Compound 59] ?
Return: 7.70 to 9.00

Enquiry: Which measured pIC50 value corresponds to COc1cc2cc(c1OC)OCCCC(OC(=O)C1CC1)CCN1CCCN(CCCOC2=O)CC1 (centres unmarked) [Compound 60] ?
Return: 7.70 to 9.00

----------
pIC50 reference
system: human T cells; assay: T cell stimulation assay (Example III, FIG. 1); assay type: cell-based; settings: ATP 100 µM, with HSA 2% and AAG 0,1% (FIG. 1B), read-out: IC50 of restoration of T cell proliferation under high protein binding conditions
// pIC50: -log10(molar conc.)

Illustrative cases are given below, each with its answer.
>  <compound>
COc1cc(C(=O)OC2CCCOc3cc(cc(OC)c3OC)C(=O)NCCCN3CCCN(CC2)CC3)cc(OC)c1OC (stereo not shown)

>  <readout value>
7.80

$$$$
>  <compound>
COc1cc(C(=O)OC2CCCOc3cc(cc(OC)c3OC)C(=O)N(C)CCCN3CCCN(CC2)CC3)cc(OC)c1OC (stereo not shown)

>  <readout value>
6.90

$$$$
>  <compound>
COc1cc(C(=O)OCCCN2CCCN(CCCOC(=O)c3cc(OC)c(OC)c(OC)c3)CC2)cc(OC)c1OC [Dilazep, dilazep, reference compound]

>  <readout value>
6.47

$$$$

Next item in the queue.
Enquiry: Which measured pIC50 value corresponds to `COc1cc(C(=O)O[C@H]2CCCOc3cc(cc(OC)c3OC)C(=O)OCCCN3CCCN(CC2)CC3)cc(OC)c1OC` ?
Return: 8.70
